Experiment: NCI Yeast Anticancer Drug Screen. Data for the mlh1 rad18 strain (AID 175)
Conditions: S. cerevisiae mlh1 rad18 strain growth inhibition; at 50.0 µM; stronger effect = higher value
Method: Growth inhibition of yeast strains with defined genetic alterations is measured as a screen for potential anti-cancer activity. Selected strains with alterations in DNA damage repair or cell cycle control were exposed to compounds and growth inhibition was measured relative to vehicle treated controls. The strain used in this assay is mlh1 rad18
Compounds without any hit were thinned out: in the full panel of roughly 79,000, 15% have a hit.
readout-type: growth inhibition (%)
Express your answer in %, writing the number without its unit.

Query string: Need growth inhibition, item `Cc1cccc(N=Nc2ccc(O)c(CN(C)C)c2)c1`
Result string: 20.2

Query string: Sample COC(=O)C(O)c1ccc(C(C)C)cc1 (configuration not stated) — what was its growth inhibition?
Result string: -9.2

Query string: # get_value(readout='growth inhibition', item= `CCN(Cc1ccc(C(=O)OC)cc1)c1cccc(NC(C)=O)c1` )
Result string: 34

Query string: Reported growth inhibition, compound CSC1(C)C(=O)Nc2ccc(C(F)(F)F)cc21 (configuration not stated) : ____
Result string: 0.1

Query string: Query (compound): `CCC1=NC(C(F)(F)F)(C(F)(F)F)N=C(N2CCOCC2)O1` ; field requested: growth inhibition
Result string: 2.2

Query string: Which growth inhibition value is on record for CCCCCCCCCCCCCCCc1c(NC(C)(CC(C)(C)O)[P+](=O)O)c(=O)n(C)n1C (configuration not stated) ?
Result string: -33.4

Query string: Quick one: growth inhibition of Cc1ccc(S(=O)(=O)C(CC(=O)O)c2ccccc2)cc1 (configuration not stated) ?
Result string: 4.2

Query string: Give the measured growth inhibition of `CC/C=N/Nc1cn[nH]c(=O)c1Cl` .
Result string: -14.9

Query string: Consider the compound CCCCCCCCCCCC(=O)C1=C(O)C(O)CCC1=O (configuration not stated) and give its measured growth inhibition.
Result string: -16.9

Query string: Requested field: growth inhibition. Item: `CCN(CC)Cc1cc(NC(C)=O)ccc1O`
Result string: 2.3

Query string: Return reported growth inhibition; argument: O=C1C2=C(c3ccccc31)C(c1ccccc1Cl)N1C(=O)CCSC1=N2 (configuration not stated)
Result string: -3.45

Query string: Which growth inhibition is listed for `COc1ccc(NC(=O)CC(=O)NN)cc1` ?
Result string: 9.2
